test system: CAKI-1; experiment: AUC of dose-response viability curve, drug + dasatinib, normalised to DMSO (arbitrary (AUC of normalised viability)); higher = less growth inhibition; conditions: treatment: drug + dasatinib (fixed dose, not stated); 5 days
Listed here: items and their measured AUC of dose-response viability curve.
I'd appreciate a reply containing only the number, no unit.

CNC(=O)c1c(F)cccc1Nc1nc(Nc2cc3c(cc2OC)CCN3C(=O)CN(C)C)nc2[nH]ccc12 + Cc1nc(Nc2ncc(C(=O)Nc3c(C)cccc3Cl)s2)cc(N2CCN(CCO)CC2)n1
1.87

Okay, now this compound:
Input: Looking for the measured AUC of dose-response viability curve of CN(C)C1CCN(C(=O)c2ccc(NC(=O)Nc3ccc(-c4nc(N5CCOCC5)nc(N5CCOCC5)n4)cc3)cc2)CC1 + Cc1nc(Nc2ncc(C(=O)Nc3c(C)cccc3Cl)s2)cc(N2CCN(CCO)CC2)n1 , can you help?
Output: 1.74

---

Listed here: items and their measured GI50 of drug.
system: CAKI-1; test: GI50 of drug in presence of dasatinib; higher = less potent; conditions: treatment: drug + dasatinib (fixed dose, not stated); 5 days
Value expressed in nM; do not type the unit.

Use these answered entries as a reference point.
CC(=O)c1c(C)c2cnc(Nc3ccc(N4CCNCC4)cn3)nc2n(C2CCCC2)c1=O.Cl + Cc1nc(Nc2ncc(C(=O)Nc3c(C)cccc3Cl)s2)cc(N2CCN(CCO)CC2)n1 [dasatinib]
179
CS(=O)(=O)O.O=C(Nc1cccc(Cl)c1)Nc1ncc(CCNc2ncnc3ccsc23)s1 [SNS-314] + Cc1nc(Nc2ncc(C(=O)Nc3c(C)cccc3Cl)s2)cc(N2CCN(CCO)CC2)n1 [dasatinib]
41.5
O=C(O)c1ccc2c(c1)nc(Nc1cccc(Cl)c1)c1ccncc12 [cx-4945 (Silmitasertib)] + Cc1nc(Nc2ncc(C(=O)Nc3c(C)cccc3Cl)s2)cc(N2CCN(CCO)CC2)n1 [dasatinib]
1270
CNC(=O)c1cc(COc2nnc(Nc3ccc(Cl)cc3)c3ccoc23)ccn1 [Telatinib (BAY 57-9352)] + Cc1nc(Nc2ncc(C(=O)Nc3c(C)cccc3Cl)s2)cc(N2CCN(CCO)CC2)n1 [dasatinib]
3470

Input: Looking for the measured GI50 of drug of COc1cc(Nc2ncc(F)c(Nc3ccc4c(n3)NC(=O)C(C)(C)O4)n2)cc(OC)c1OC [R406(free base)] + Cc1nc(Nc2ncc(C(=O)Nc3c(C)cccc3Cl)s2)cc(N2CCN(CCO)CC2)n1 [dasatinib] , can you help?
Output: 231

Input: Looking for the measured GI50 of drug of CCn1cc(-c2ccnc3[nH]c(-c4cccc(CN(C)C)c4)cc23)c(-c2ccc(NC(=O)N(C)C)cc2)n1 + Cc1nc(Nc2ncc(C(=O)Nc3c(C)cccc3Cl)s2)cc(N2CCN(CCO)CC2)n1 [dasatinib] , can you help?
Output: 96.9

Input: Looking for the measured GI50 of drug of NCC(=O)Nc1ccc(-n2nc(C(F)(F)F)cc2-c2ccc3c(ccc4ccccc43)c2)cc1 + Cc1nc(Nc2ncc(C(=O)Nc3c(C)cccc3Cl)s2)cc(N2CCN(CCO)CC2)n1 [dasatinib] , can you help?
Output: 3650

---

system: A498; test: AUC of dose-response viability curve, drug alone (arbitrary (AUC of normalised viability)); higher = less growth inhibition; conditions: treatment: drug alone; 5 days
ASSAY READOUT: AUC of dose-response viability curve

Use these answered entries as a reference point.
COc1cc2ncnc(Nc3cccc(Br)c3)c2cc1OC.Cl
4.63
COc1cc(Nc2ncc(F)c(Nc3ccc4c(n3)N(COP(=O)([O-])[O-])C(=O)C(C)(C)O4)n2)cc(OC)c1OC.[Na+].[Na+]
3.85
O=C(O)c1ccc2c(c1)nc(Nc1cccc(Cl)c1)c1ccncc12 [cx-4945 (Silmitasertib)]
4.21

Input: Looking for the measured AUC of dose-response viability curve of "Nc1nccc(Oc2ccc(NC(=O)c3c[nH]cc(-c4ccc(F)cc4)c3=O)cc2F)c1Cl" , can you help?
Output: 4.08

---

tested on: 769-P; assay: AUC of dose-response viability curve, drug alone (arbitrary (AUC of normalised viability)); higher = less growth inhibition; conditions: treatment: drug alone; 5 days
Response field label: string, one of T (AUC of dose-response viability curve strictly below 3) or F.

Previously resolved entries follow.
COc1ccc(-c2ccc3c(N4CCOC[C@@H]4C)nc(N4CCOC[C@@H]4C)nc3n2)cc1CO
T
COC[C@H]1OC(=O)c2coc3c2[C@@]1(C)C1=C(C3=O)[C@@H]2CCC(=O)[C@@]2(C)C[C@@H]1OC(C)=O
F
CN1C(=O)C(Cc2c[nH]c3ccccc23)NC1=S (stereo not given)
F
O=C1NC(=O)C(=Cc2ccc(-c3ccc(F)cc3)o2)S1 (stereo in doubt)
F
CC(C)NC[C@@H](C(=O)N1CCN(c2ncnc3c2[C@H](C)C[C@H]3O)CC1)c1ccc(Cl)cc1
F
C[C@H](NC(=O)/C(C#N)=C/c1cccc(Br)n1)c1ccccc1
F
COc1cc(Nc2ncc(F)c(Nc3ccc4c(n3)N(COP(=O)([O-])[O-])C(=O)C(C)(C)O4)n2)cc(OC)c1OC.[Na+].[Na+]
F
Cn1cnc(N)c2ncnc1-2
F

Input: I'd appreciate it if you could check whether "Nc1nc(N)c2nc(-c3cccc(O)c3)c(-c3cccc(O)c3)nc2n1" has AUC of dose-response viability curve smaller than 3.
Output: F

Input: I'd appreciate it if you could check whether "Cn1cc(-c2ccc3nnc(C(F)(F)c4ccc5ncccc5c4)n3n2)cn1" has AUC of dose-response viability curve smaller than 3.
Output: F

Input: I'd appreciate it if you could check whether Cl.Cl.Clc1ccc(Nc2nnc(Cc3ccncc3)c3ccccc23)cc1 [Vatalanib dihydrochloride (PTK787)] has AUC of dose-response viability curve smaller than 3.
Output: F

Input: I'd appreciate it if you could check whether "CCOc1cc2ncc(C#N)c(Nc3ccc(OCc4ccccn4)c(Cl)c3)c2cc1NC(=O)/C=C/CN(C)C" has AUC of dose-response viability curve smaller than 3.
Output: T

Input: I'd appreciate it if you could check whether O=C1NC(=O)[C@@H](c2cn3c4c(cccc24)CCC3)[C@@H]1c1c[nH]c2ccccc12 [ARQ 197 (Tivantinib)] has AUC of dose-response viability curve smaller than 3.
Output: T

Input: I'd appreciate it if you could check whether "Cc1[nH]c(/C=C2\C(=O)Nc3ccc(S(=O)(=O)Cc4c(Cl)cccc4Cl)cc32)c(C)c1C(=O)N1CCC[C@@H]1CN1CCCC1" has AUC of dose-response viability curve smaller than 3.
Output: T

---

system: CAKI-1; experiment: GI50, drug alone; higher = less potent; conditions: treatment: drug alone; 5 days
Listed here: items and their measured GI50, drug alone.
Value expressed in µM; do not type the unit.

Use these answered entries as a reference point.
CCN(CC)CCNC(=O)c1c(C)[nH]c(/C=C2\C(=O)Nc3ccc(F)cc32)c1C.O=C(O)C[C@H](O)C(=O)O [Sunitinib Malate (Sutent)]
1.49
CC1(COc2ccc3c(c2)ncn3-c2ccc3cccc(N4CCC(N)CC4)c3n2)COC1
3.2

Input: Can you look up GI50, drug alone on CAKI-1 for "CCN1CCN(c2ccc(Nc3cc(N(C)C(=O)Nc4c(Cl)c(OC)cc(OC)c4Cl)ncn3)cc2)CC1" ?
Output: 0.519

---

tested on: ACHN; assay: AUC of dose-response viability curve, drug + dasatinib, normalised to DMSO (arbitrary (AUC of normalised viability)); higher = less growth inhibition; details: treatment: drug + dasatinib (fixed dose, not stated); 5 days
Response field label: string, one of criterion met (AUC of dose-response viability curve strictly below 1) or criterion not met.

COc1cc2ncnc(Nc3ccc(F)c(Cl)c3)c2cc1NC(=O)/C=C/CN1CCCCC1 + Cc1nc(Nc2ncc(C(=O)Nc3c(C)cccc3Cl)s2)cc(N2CCN(CCO)CC2)n1
criterion met
O=C(Cc1ccc(-c2ccc(OCCN3CCOCC3)cc2)cn1)NCc1ccccc1 [KX2-391] + Cc1nc(Nc2ncc(C(=O)Nc3c(C)cccc3Cl)s2)cc(N2CCN(CCO)CC2)n1
criterion not met
CC(C)n1nc(-c2cc3cc(O)ccc3[nH]2)c2c(N)ncnc21 [PP242] + Cc1nc(Nc2ncc(C(=O)Nc3c(C)cccc3Cl)s2)cc(N2CCN(CCO)CC2)n1
criterion not met
Cc1cc(C(=O)NOCCO)c(Nc2ccc(I)cc2F)n(C)c1=O [AZD8330] + Cc1nc(Nc2ncc(C(=O)Nc3c(C)cccc3Cl)s2)cc(N2CCN(CCO)CC2)n1
criterion met

Input: I'd appreciate it if you could check whether CCOC(=O)C1=C(N)Oc2ccc(Br)cc2[C@H]1[C@H](C#N)C(=O)OCC [HA14-1] + Cc1nc(Nc2ncc(C(=O)Nc3c(C)cccc3Cl)s2)cc(N2CCN(CCO)CC2)n1 has AUC of dose-response viability curve smaller than 1.
Output: criterion not met

---

system: 786-O; assay: AUC of dose-response viability curve, drug + dasatinib, normalised to DMSO (arbitrary (AUC of normalised viability)); higher = less growth inhibition; details: treatment: drug + dasatinib (fixed dose, not stated); 5 days
Listed here: items and their measured AUC of dose-response viability curve.
I'd appreciate a reply containing only the number, no unit.

Cc1cc2c(F)c(Oc3ncnn4cc(OC[C@@H](C)O)c(C)c34)ccc2[nH]1 + Cc1nc(Nc2ncc(C(=O)Nc3c(C)cccc3Cl)s2)cc(N2CCN(CCO)CC2)n1
2.65
Cc1cc(C)c(/C=C2\C(=O)Nc3ccccc32)[nH]1 [Semaxanib (SU5416)] + Cc1nc(Nc2ncc(C(=O)Nc3c(C)cccc3Cl)s2)cc(N2CCN(CCO)CC2)n1
2.4

Okay, now this compound:
Input: Looking for the measured AUC of dose-response viability curve of CCS(=O)(=O)N1CC(CC#N)(n2cc(-c3ncnc4[nH]ccc34)cn2)C1 + Cc1nc(Nc2ncc(C(=O)Nc3c(C)cccc3Cl)s2)cc(N2CCN(CCO)CC2)n1 , can you help?
Output: 2.58
